Tested on: 786-0
assay procedure: NCI tumour cell line growth inhibition, 48 h
The source made the active and inactive calls. Rule as the data show it: active = GI50 up to about 1.1 µM and inactive = higher.
readout type: GI50

Look over these answered cases.
molecule	result
O=C(O)CCC(NC(=O)c1ccc(Nc2nc3ccccc3nc2C(=O)O)cc1)C(=O)O (centres undefined)	> 100 µM (inactive)
Cc1ccc(C)c(N2C(=O)C(=O)c3c(C)ccc(C)c32)c1	29.3 µM (inactive)
CCOC(=O)c1c(CN2CCNCC2)nc2ccc(Cl)cc2c1-c1ccccc1	1.65 µM (inactive)
O=C1CC(O)C=C1Nc1ccc(Cl)cc1 (centres undefined)	58.2 µM (inactive)

query: Request: GI50, test system 786-0, entry CCOC(=O)c1[nH]c2c(OC)n[n+]([O-])cc2c1[N+](=O)[O-]
result: 16.4 µM (inactive)

query: Request: GI50, test system 786-0, entry CC1Cc2cc(O)c(O)cc2-c2cc(O)c(O)cc2CC1C (centres undefined)
result: 14.3 µM (inactive)

query: Request: GI50, test system 786-0, entry CC(=O)NNc1nc(C)c(C(=O)NNC(=O)C(=O)Nc2c(C)cccc2C)s1
result: 50.8 µM (inactive)

query: Request: GI50, test system 786-0, entry Cc1ccc(NC(Nc2ccc(C)cc2C)=C(C(Cl)=C(Cl)Cl)[N+](=O)[O-])c(C)c1
result: 16.1 µM (inactive)
